FYI, the data here is from ChEMBL document CHEMBL5143663.

Entries and their measured AUC(0-t) follow.
Assay: AUC (0 to t) in Wistar rat at 1 mg/kg, iv
Type: ADME, organism-based
Design: dose 1 mg/kg, route iv
Conditions: in vivo
Give the value in ng·h/mL but do not write ng·h/mL after it.

Solved entries:
N#CCNC(=O)c1ccc(-c2nc(Nc3ccc(N4CCC(N5CCOCC5)CC4)cc3)ncc2Cl)cc1	1110
N#CCNC(=O)c1ccc(-c2nc(Nc3ccc(N4CCC(N5CCOCC5)CC4)cc3)ncc2F)cc1	18900

Challenge: Given the entry N#CCNC(=O)c1ccc(-c2ccnc(Nc3ccc(N4CCOCC4)cc3)n2)cc1 , report its measured AUC(0-t).
Response given: 3570

Challenge: Given the entry Cc1cnc(Nc2ccc(N3CCC(N4CCOCC4)CC3)cc2)nc1-c1ccc(C(=O)NCC#N)cc1 , report its measured AUC(0-t).
Response given: 1900
